Assay: Half-life period was determined in rats at 20 mg/kg, i.p. dose
Assay type: ADME, organism-based
Set-up: dose 20 mg/kg, route intraperitoneal
Details: rat, in vivo, ip

Smiles String: CCOc1ccc(-n2c(C)c3c(C)nnc(C)c3c2C)cc1
half-life: 1.2 h

* * *

Tested on: Rattus norvegicus
Test: Time required by compound for reaching maximum plasma concentration was determined in rats at 20 mg/kg, i.p. dose
Type: ADME, organism-based
Set-up: dose 20 mg/kg, route intraperitoneal
Settings: in vivo, ip
Reported Property: T max (min)

Smiles String: CCOc1ccc(-n2c(C)c3c(C)nnc(C)c3c2C)cc1
Measurement Target: Rattus norvegicus
Reported Measurement: 18

* * *

Assay: Plasma concentration was determined in rats at 10 mg/kg, p.o. dose
Assay type: ADME, organism-based
Design: dose 10 mg/kg, route oral
Conditions: rat, po

Smiles String: CCOc1ccc(-n2c(C)c3c(C)nnc(C)c3c2C)cc1
AUC, µM·h: 27

* * *

Assay: Plasma concentration was determined in rats at 20 mg/kg, i.p. dose
Type: ADME, organism-based
Design: dose 20 mg/kg, route intraperitoneal
Conditions: rat, ip

Smiles String: CCOc1ccc(-n2c(C)c3c(C)nnc(C)c3c2C)cc1
AUC: 141 µM·h

* * *

Recorded measurements of IC50, one per entry
Target: Voltage-dependent calcium channel subunit alpha-2/delta-1 (Homo sapiens, UniProt P54289)
Sequence (P54289 25-956 limits assumed): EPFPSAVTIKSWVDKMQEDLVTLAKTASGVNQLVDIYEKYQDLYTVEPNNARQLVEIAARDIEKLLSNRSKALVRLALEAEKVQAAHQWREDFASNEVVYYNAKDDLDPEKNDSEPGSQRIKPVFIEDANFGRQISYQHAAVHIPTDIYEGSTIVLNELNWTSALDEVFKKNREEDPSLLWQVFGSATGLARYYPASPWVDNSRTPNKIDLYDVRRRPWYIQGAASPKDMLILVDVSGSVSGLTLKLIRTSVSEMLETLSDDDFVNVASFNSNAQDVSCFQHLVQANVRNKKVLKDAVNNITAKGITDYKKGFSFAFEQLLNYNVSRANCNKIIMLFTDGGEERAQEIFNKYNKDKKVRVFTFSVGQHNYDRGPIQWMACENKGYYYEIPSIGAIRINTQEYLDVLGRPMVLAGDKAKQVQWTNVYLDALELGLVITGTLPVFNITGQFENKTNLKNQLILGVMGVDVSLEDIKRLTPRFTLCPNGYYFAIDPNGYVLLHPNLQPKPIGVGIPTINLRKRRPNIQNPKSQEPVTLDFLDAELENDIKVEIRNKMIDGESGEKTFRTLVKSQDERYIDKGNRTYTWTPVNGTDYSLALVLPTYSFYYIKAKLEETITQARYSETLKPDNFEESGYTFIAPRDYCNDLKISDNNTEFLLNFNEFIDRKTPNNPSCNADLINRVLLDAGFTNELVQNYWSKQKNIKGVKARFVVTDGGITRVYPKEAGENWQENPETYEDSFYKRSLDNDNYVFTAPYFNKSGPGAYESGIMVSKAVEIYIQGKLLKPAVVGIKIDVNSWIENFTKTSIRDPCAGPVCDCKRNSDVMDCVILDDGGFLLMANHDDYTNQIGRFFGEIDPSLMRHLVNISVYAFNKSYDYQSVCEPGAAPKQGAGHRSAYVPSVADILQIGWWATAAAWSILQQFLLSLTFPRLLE
Sequence (P54289 957-1103 limits assumed): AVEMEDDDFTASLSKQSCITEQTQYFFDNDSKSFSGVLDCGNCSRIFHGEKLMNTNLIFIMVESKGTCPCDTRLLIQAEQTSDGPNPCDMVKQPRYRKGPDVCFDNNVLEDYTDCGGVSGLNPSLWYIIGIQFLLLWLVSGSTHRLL
Assay: Binding affinity for huamn alpha2-delta1 subunit of voltage gated calcium channel over-expressed in A710 cell membranes using [3H]-gabapentin
Reported Property: IC50 (µM)

Molecule: CCOc1ccc(-n2c(C)c3c(C)nnc(Nc4ccc(OC)cc4)c3c2C)cc1
Unit Symbol: µM
Relation Symbol: =
Reported Measurement: 0.44
//
Molecule: CCOc1ccc(-n2c(C)c3c(C)nnc(OC)c3c2C)cc1
Unit Symbol: µM
Relation Symbol: =
Reported Measurement: 2.18
//
Molecule: CCOc1ccc(-n2c(C)c3c(C)nnc(Nc4ccc(C)cc4)c3c2C)cc1
Unit Symbol: µM
Relation Symbol: =
Reported Measurement: 0.24
//
Molecule: CCOc1ccc(-n2c(C)c3c(C)nnc(-c4cccc(Cl)c4)c3c2C)cc1
Unit Symbol: µM
Relation Symbol: =
Reported Measurement: 1.6
//
Molecule: CCOc1ccc(-n2c(C)c3c(C)nnc(CC(C)CC(C)(C)C)c3c2C)cc1 (stereo not given)
Unit Symbol: µM
Relation Symbol: =
Reported Measurement: 0.577
//
Molecule: CCOc1ccc(-n2c(C)c3c(C)nnc(CCC(C)C)c3c2C)cc1
Unit Symbol: µM
Relation Symbol: =
Reported Measurement: 0.263
//
Molecule: CCOc1ccc(-n2c(C)c3c(C)nnc(-c4ccc(Cl)cc4)c3c2C)cc1
Unit Symbol: µM
Relation Symbol: =
Reported Measurement: 0.701
//
Molecule: CCOc1ccc(-n2c(C)c3c(C)nnc(C4CC4)c3c2C)cc1
Unit Symbol: µM
Relation Symbol: =
Reported Measurement: 0.17
//
Molecule: CCOc1ccc(-n2c(C)c3c(C)nnc(-c4cccc(OC)c4)c3c2C)cc1
Unit Symbol: µM
Relation Symbol: =
Reported Measurement: 0.335
//
Molecule: CCOc1ccc(-n2c(C)c3c(C)nnc(-c4ccccc4Cl)c3c2C)cc1
Unit Symbol: µM
Relation Symbol: =
Reported Measurement: 4.37
//
Molecule: COc1ccc(-n2c(C)c3c(C)nnc(C)c3c2C)cc1
Unit Symbol: µM
Relation Symbol: >
Reported Measurement: 10
//
Molecule: CCOc1ccc(-n2c(C)c3c(C)nnc(C4CCCCC4)c3c2C)cc1
Unit Symbol: µM
Relation Symbol: =
Reported Measurement: 0.235
//
Molecule: CCOc1ccc(-n2c(C)c3c(C)nnc(Nc4ccc(N)cc4)c3c2C)cc1
Unit Symbol: µM
Relation Symbol: >
Reported Measurement: 10
//
Molecule: CCOc1ccc(-n2c(C)c3c(C)nnc(NC)c3c2C)cc1
Unit Symbol: µM
Relation Symbol: =
Reported Measurement: 0.04
//
Molecule: CCOc1ccc(-c2nnc(C)c3c(C)n(-c4ccc(OCC)cc4)c(C)c23)cc1
Unit Symbol: µM
Relation Symbol: =
Reported Measurement: 0.153
//
Molecule: CCOc1ccc(-n2c(C)c3c(C)nnc(N(C)C)c3c2C)cc1
Unit Symbol: µM
Relation Symbol: =
Reported Measurement: 0.17
//
Molecule: CCOc1ccc(-n2c(C)c3c(C)nnc(CC)c3c2C)cc1
Unit Symbol: µM
Relation Symbol: =
Reported Measurement: 0.25
//
Molecule: CCOc1ccc(-n2c(C)c3c(C)nnc(-c4ccc(CC)cc4)c3c2C)cc1
Unit Symbol: µM
Relation Symbol: =
Reported Measurement: 0.107
//
Molecule: CCOc1ccc(-n2c(C)c3c(C)nnc(CC4CCCC4)c3c2C)cc1
Unit Symbol: µM
Relation Symbol: =
Reported Measurement: 0.211
//
Molecule: CCOc1ccc(-n2c(C)c3c(C)nnc(Nc4ccncc4)c3c2C)cc1
Unit Symbol: µM
Relation Symbol: >
Reported Measurement: 10
